# Tested on: Saccharomyces cerevisiae;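 further: PSI is a weighted mean of sequencing reads over stability bins, variants kept only with over 10 reads, mCherry proximal and sfGFP distal, peptide attached via GGGS linker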
# MEASUREMENT PROTOCOL: protein stability index of tFT-peptide fusion (C-terminal peptide) (PSI (0-1 scale)); higher = more stable (slower turnover)
# CONDITION SUMMARY: genetic background: wild type; temperature: 30 C

{"SEQUENCE TEXT": "PVPLVLSFLCDL", "protein stability index": 0.686}
{"SEQUENCE TEXT": "AELLMLRIFFLF", "protein stability index": 0.132}
{"SEQUENCE TEXT": "VLDVRLGGRCGE", "protein stability index": 0.702}
{"SEQUENCE TEXT": "RSAVECRVTNIR", "protein stability index": 0.546}
{"SEQUENCE TEXT": "PAPAPPSHFQER", "protein stability index": 0.717}
{"SEQUENCE TEXT": "EQRQVQVTWRQD", "protein stability index": 0.66}
{"SEQUENCE TEXT": "DLVGSWMCGPDL", "protein stability index": 0.691}
{"SEQUENCE TEXT": "KQGFVRARSYHP", "protein stability index": 0.699}
{"SEQUENCE TEXT": "SVGGILWLMLEG", "protein stability index": 0.677}
{"SEQUENCE TEXT": "FVFAMSECIVLS", "protein stability index": 0.308}
{"SEQUENCE TEXT": "YTMGGSLSVSLD", "protein stability index": 0.817}
{"SEQUENCE TEXT": "STCRCGGFRNGS", "protein stability index": 0.762}
{"SEQUENCE TEXT": "RVRWRSQRSMVV", "protein stability index": 0.689}
{"SEQUENCE TEXT": "CSRFPGSVRVVS", "protein stability index": 0.615}
{"SEQUENCE TEXT": "KYFCSLAFFLFA", "protein stability index": 0.502}
{"SEQUENCE TEXT": "TCPFTIHRLKVG", "protein stability index": 0.238}
{"SEQUENCE TEXT": "YQGERGAIGVIF", "protein stability index": 0.605}
{"SEQUENCE TEXT": "GLYHGFCLSGCL", "protein stability index": 0.678}
{"SEQUENCE TEXT": "VGAGRGKWRGGG", "protein stability index": 0.659}
